Data origin: patent US7053070B2

molecular target: cdk2/cyclinA (Homo sapiens, UniProt P24941); test: Cyclin dependent kinase 2 assay (cdk2/cyclinA), 32P incorporation, filter plate; settings: retinoblastoma substrate, 12 mM ATP, 25° C., 15 minutes; read-out: Inhibition of Cdks: IC50 Cdk2/A
pIC50: −log10 of the molar value.
reported.property: pIC50

[[record]]
smiles_code = "CC(C)(C)NC(=O)Nc1ccc2cnc(Nc3ccc(N4CCNCC4)cc3)nc2n1"
value_modifier = "="
readout_number = 7.22

[[record]]
smiles_code = "CCCNC(=O)Nc1cc(C)c2cnc(Nc3ccc(N4CCNCC4)cc3)nc2n1"
value_modifier = "<"
readout_number = 5.30

[[record]]
smiles_code = "CC(C)(C)NC(=O)Nc1ccc2cnc(Nc3ccc(N4CCN(C(=O)OC(C)(C)C)CC4)cc3)nc2n1"
value_modifier = "="
readout_number = 5.97

[[record]]
smiles_code = "CC(C)C[C@@H](CO)NC(=O)Nc1ccc2cnc(Nc3ccc(N4CCNCC4)cc3)nc2n1"
value_modifier = "="
readout_number = 6.52

